target-system: Parkinson's disease protein 7 (PARK7/DJ1) (human)
experimental-protocol: primary screen, percent inhibition; higher = more effect of the substance
condition-label: 100 µM
Among all 7,900 compounds or so, about 400 (5.1%) showed an effect of 50% or more. The list comes from a sample in which strong results are over-represented; it also holds close analogues and randomly drawn compounds.
// label 0 strictly below 10% in Inhibition %; label 1 otherwise

The examples below pair each entry with its known result.
Assess whether reported Inhibition % for COc1cc(F)ccc1N1CCN(C2CCOC2=O)CC1 (stereo not drawn) sits at 10% or higher. label 0

Tell me whether Inhibition % is at least 10% here: COC(F)(F)C(F)(F)c1ccc(B2OC(C)(C)C(C)(C)O2)cc1 label 0

Check if Inhibition % >= 10% (inclusive). Item: CN(Cc1ccc(OC(F)F)cc1)C(=O)CCl label 1

Dear colleague, could you confirm whether COc1cccc(C2CCCN2C(=O)CCl)c1 (stereo not drawn) has Inhibition % at or above 10%? label 0

Does the compound COc1ccccc1CNC(=O)CCl have recorded Inhibition % that is 10% or more? label 1

Threshold query (Inhibition % >= 10%) on C=CC(=O)Nc1ccccc1N1CCNC(=O)C1 label 1

Is Inhibition % at least 10%? Consider C=CC(=O)NC(C)(C)c1cnn(C)c1 label 0

Check if Inhibition % >= 10% (inclusive). Item: O=C(NCc1ccccc1)N1CCCCC1C1OCCO1 (stereo not drawn) label 0

Next:
Check the entry CN(Cc1ccc2c(c1)OCCO2)C(=O)CCl : does Inhibition % equal or exceed 10%? label 1

Assess whether reported Inhibition % for C=CC(=O)NCc1nnc2n1CCCC2C(F)(F)F (stereo not drawn) sits at 10% or higher. label 0

Would you say Cn1ncc(C(=O)Nc2cccc(S(=O)(=O)F)c2)c1C#N shows Inhibition % at minimum 10%? label 0

Would you say CCN(Cc1ccc2c(c1)OCCO2)C(=O)CCl shows Inhibition % at minimum 10%? label 1

Could you verify whether the entry C=CC(=O)Nc1cnc2c(C)cccn12 shows Inhibition % of no less than 10%? label 0

Hi team, for C=CC(=O)N(C)CC1COc2ccccc2O1 (stereo not drawn) , is the recorded Inhibition % at or above 10%? label 0

Textbook exercise: given the entry C=CC(=O)N1CCC(C(=O)O)(c2ccccc2)CC1 , state whether its Inhibition % is greater than or equal to 10%. label 0

Quick check: does CC1(C)OB(c2ccc(N)c(CO)c2)OC1(C)C have Inhibition % greater than or equal to 10%? label 0

Is the recorded value of Inhibition % equal to or greater than 10% for this compound? CCC1(C(=O)Nc2cccc(S(=O)(=O)F)c2)CCC1 label 1

Quick check: does C=CC(=O)N(Cc1nc(-c2cccnc2)no1)C(C)C have Inhibition % greater than or equal to 10%? label 1

Is it the case that Cn1cc(C(C)(C)C(=O)Nc2cccc(S(=O)(=O)F)c2)cn1 has Inhibition % reaching or exceeding 10%? label 1

hey, is Inhibition % for this one >= 10%? COc1ccc(F)cc1S(=O)(=O)n1ccnc1C label 0

Does Inhibition % meet or surpass 10% for O=c1[nH]c(S)nc2[nH]ncc12 ? label 0

Entry Cc1cc(C(=O)Nc2cccc(S(=O)(=O)F)c2)nn1C(C)(C)C : is its Inhibition % no less than 10%? label 1

Given COc1ccccc1CCNC(=O)CCl , state whether its Inhibition % is at least 10%. label 1

Form field: Inhibition % at least 10%? Entry: COc1nc(C)ccc1C(=O)Nc1cccc(S(=O)(=O)F)c1 label 1

Check the entry Cc1nn(C)c(Cl)c1C=CC(=O)N1CCC(C(=O)O)C1.Cl (stereo not drawn) : does Inhibition % equal or exceed 10%? label 0

I'd appreciate it if you could say whether C=CC(=O)N1CCc2nc(-c3ccccc3)sc2C1 has Inhibition % at least equal to 10%. label 1

###

Below, each entry is listed alongside its reported Inhibition %.
target-system: Parkinson's disease protein 7 (PARK7/DJ1) (human)
experimental-protocol: primary screen, percent inhibition; higher = more effect of the substance
condition-label: 100 µM
Protocol: The screen was conducted using the conditions as described above in 1536-well plates (Corning 3724) with a reaction volume of 8 μL per well. The compound library containing 7887 covalent fragments was purchased at Enamine Ltd. and received as 100 mM DMSO stocks in 384 well LDV Echo plates (Labcyte LP-0200). Stock solutions of 0.26 μM PARK7 and 80 nM JYQ-107 were prepared. […] After 2 h incubation, the FP signal was recorded on a BMG Labtech PHERAstar plate reader (λex/em 480/520 nm). […]
The whole screen tested about 7,900 compounds, of which about 400 (5.1%) showed an effect of 50% or more. Many of the other results were omitted from the sample, so strong results are more common in it than they were.
Put down the number, then write its unit next to it.

Some molecules with recorded Inhibition %:
Find Inhibition % (Parkinson's disease protein 7 (PARK7/DJ1) (human)) for the entry N#Cc1ccc(Cl)cn1 8.27%

Under Parkinson's disease protein 7 (PARK7/DJ1) (human): Inhibition % value of COc1cc(S(=O)(=O)F)ccc1O ? 17.3%

What is its Inhibition % for Parkinson's disease protein 7 (PARK7/DJ1) (human)? Entry: CN1CCCC(CCl)C1.Cl (stereo not shown) 4.37%

Request: Inhibition %, test system Parkinson's disease protein 7 (PARK7/DJ1) (human), entry Cc1nc(C(C)(C)C)nc(S)c1C(=O)O 1.97%

Give the reported Inhibition % for O=C(CCl)Nc1cc(F)cc(F)c1 (system: Parkinson's disease protein 7 (PARK7/DJ1) (human)). 14.6%

What reported Inhibition % corresponds to NC(=O)c1ccc(NC(=O)CCl)cc1 on Parkinson's disease protein 7 (PARK7/DJ1) (human)? 35.3%

Given the entry C=CC(=O)NC1CCCC1C(=O)NC (stereo not shown) , what Inhibition % was observed with Parkinson's disease protein 7 (PARK7/DJ1) (human)? 9%

Provide the documented Inhibition % with Parkinson's disease protein 7 (PARK7/DJ1) (human) as the system for CCc1ccc(C=CS(=O)(=O)Nc2onc(C)c2C)cc1 4.3%

***
Could you share what Inhibition % was measured for O=C(O)Cc1ccc(NC(=O)CCl)cc1 , tested on Parkinson's disease protein 7 (PARK7/DJ1) (human)? 43.8%

# query: Inhibition % | item COc1ccc(S(=O)(=O)F)cc1O | system: Parkinson's disease protein 7 (PARK7/DJ1) (human) 54%

// fetch Parkinson's disease protein 7 (PARK7/DJ1) (human) Inhibition % for O=C1SCCN1CC(=O)N1CCCc2ccccc21 7.03%

###

target-system: Parkinson's disease protein 7 (PARK7/DJ1) (human, UniProt Q99497)
Sequence (Q99497 whole entry, looked up): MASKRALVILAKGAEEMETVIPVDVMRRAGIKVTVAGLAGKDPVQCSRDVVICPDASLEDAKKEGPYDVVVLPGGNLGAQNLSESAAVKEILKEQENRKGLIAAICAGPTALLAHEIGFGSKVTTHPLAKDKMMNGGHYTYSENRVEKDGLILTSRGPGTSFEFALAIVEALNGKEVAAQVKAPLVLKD
experimental-protocol: primary screen, percent inhibition; higher = more effect of the substance
condition-label: 100 µM
Procedure: The screen was conducted using the conditions as described above in 1536-well plates (Corning 3724) with a reaction volume of 8 μL per well. The compound library containing 7887 covalent fragments was purchased at Enamine Ltd. and received as 100 mM DMSO stocks in 384 well LDV Echo plates (Labcyte LP-0200). Stock solutions of 0.26 μM PARK7 and 80 nM JYQ-107 were prepared. […] After 2 h incubation, the FP signal was recorded on a BMG Labtech PHERAstar plate reader (λex/em 480/520 nm). […]
The whole screen tested about 7,900 compounds, of which about 400 (5.1%) showed an effect of 50% or more. Many of the other results were omitted from the sample, so strong results are more common in it than they were.
Values of Inhibition % greater than or equal to 10% map to condition met; values below map to condition not met.

Look over these answered cases.
Test whether the molecule C=CC(=O)Nc1cn(C)nc1C(C)C records Inhibition % of 10% or higher. condition not met

I'd appreciate it if you could say whether C=CC(=O)NC1CCN(C2CCOC2)CC1 (stereo not drawn) has Inhibition % at least equal to 10%. condition met

Form field: Inhibition % at least 10%? Entry: C=CC(=O)N1CCCC(C(=O)Nc2nc(C)cs2)C1 (stereo not drawn) condition not met

Next:
Does the molecule C=CC(=O)N1CCC(c2cccc(C(F)(F)F)c2)C1 (stereo not drawn) have recorded Inhibition % that is 10% or more? condition met

Check this molecule for Inhibition % at or above 10%: CN1CCCN(C(=O)c2ccc(S(=O)(=O)F)cc2)c2ccccc21 condition met

API: above_or_equal(metric=Inhibition %, cutoff=10%) for item C=CC(=O)N1CCN(c2ccc(OC)cn2)CC1 condition not met

###

target-system: Parkinson's disease protein 7 (PARK7/DJ1) (human, UniProt Q99497)
experimental-protocol: primary screen, percent inhibition; read as competition with a fluorescent probe by fluorescence polarization; higher = more effect of the substance
condition-label: 100 µM
About 400 (5.1%) of roughly 7,900 compounds showed an effect of 50% or more. The sample holds strong results, similar compounds and a random draw of the others, so the mix is not that of the screen.
measured-quantity: Inhibition % (%)
Kindly provide the numeric value in % only, without the unit symbol.

Solved entries:
Which measured Inhibition % belongs to C=CC(=O)N1CC(Cc2cccs2)C1 , tested on Parkinson's disease protein 7 (PARK7/DJ1) (human, UniProt Q99497)? 12.5

Which Inhibition % is reported with Parkinson's disease protein 7 (PARK7/DJ1) (human, UniProt Q99497) for this entry: Cn1c(S)nc2ccccc2c1=O ? 3.7

Could you share what Inhibition % was measured for N#Cc1ncn(-c2ncc(C(F)(F)F)cc2Cl)n1 , tested on Parkinson's disease protein 7 (PARK7/DJ1) (human, UniProt Q99497)? 6.83

Next:
Form field - read-out: Inhibition %; system: Parkinson's disease protein 7 (PARK7/DJ1) (human, UniProt Q99497); submitted item: Cl.ClCCN1CC2CCC(C1)O2 3.05

Lookup: Inhibition % / Parkinson's disease protein 7 (PARK7/DJ1) (human, UniProt Q99497) / C=CC(=O)NC1CC(NC(=O)C2CCC2)C1 (stereo not shown) 7.98

Form: Entry = COc1ncc(B2OC(C)(C)C(C)(C)O2)cn1 | System = Parkinson's disease protein 7 (PARK7/DJ1) (human, UniProt Q99497) | Inhibition % = ____ 4.41

// fetch Parkinson's disease protein 7 (PARK7/DJ1) (human, UniProt Q99497) Inhibition % for CS(=O)(=O)c1ccccc1NC(=O)CCl 11.4

Field: Inhibition % (Parkinson's disease protein 7 (PARK7/DJ1) (human, UniProt Q99497)). Entry: C=CC(=O)N1CCC(C)(N2CCOCC2)CC1 10

Query Inhibition % on Parkinson's disease protein 7 (PARK7/DJ1) (human, UniProt Q99497) for N#CN(Cc1ccno1)c1ccc(F)cc1 15.5
